Provenance of the data: paper PMC4785615

- assay-method-text: Mouse plasma pharmacokinetics
- Assay type: in vivo
- test-conditions: mouse, ip, male CD-1 mice, 10 mg/Kg intraperitoneal, 20 % HP-β CD suspension, read-out: Ke (elimination rate constant) (converted)
quantity-name: k el (s⁻¹)

* COc1cccc(NC(=O)c2sc3nc4c(cc3c2N)C(=O)CCC4)c1 [derivative 3] | 4.72e-06

---

- assay-method-text: Mouse plasma pharmacokinetics
- Format: in vivo
- test-conditions: male, CD-1, mouse, ip, 10 mg/kg, male CD-1 mice, 10 mg/Kg intraperitoneal, read-out: t1/2 (elimination half-life)
quantity-name: half-life

- COc1cccc(NC(=O)c2sc3nc4c(cc3c2N)C(=O)CCC4)c1: > 4 h

---

- assay-method-text: Mouse plasma pharmacokinetics
- Assay type: in vivo
- test-conditions: mouse, ip, male CD-1 mice, 10 mg/Kg intraperitoneal, up to 6 h, read-out: AUC0–6 h
quantity-name: AUC(0-t)

- COc1cccc(NC(=O)c2sc3nc4c(cc3c2N)C(=O)CCC4)c1: 0.13 µM·h

---

- assay-method-text: Mouse plasma pharmacokinetics
- Assay type: in vivo
- test-conditions: mouse, ip, male CD-1 mice, 10 mg/Kg intraperitoneal, extrapolated to infinity
quantity-name: AUC(0-inf) (µM·h)

- COc1cccc(NC(=O)c2sc3nc4c(cc3c2N)C(=O)CCC4)c1: 0.19

---

- assay-method-text: Mouse plasma pharmacokinetics
- Type: in vivo
- test-conditions: mouse, ip, male CD-1 mice, 10 mg/Kg intraperitoneal, read-out: Cmax (maximum concentration in plasma)
quantity-name: Cmax (nM)

• COc1cccc(NC(=O)c2sc3nc4c(cc3c2N)C(=O)CCC4)c1 = 87
